The reported numbers originate from patent US20220112288A1.

Item-by-item account of SKW3 FACS Binning OKT4a anti-hu A647 Secondary
Target: T1, human CD4 on cells (SKW3 cells; human PBMCs) (human, UniProt P01730 26-458)
T1 construct: whole, on cells; SKW3 CD4 knockout cells served as the negative cell line; also called hCD4
Test: FACS binning on SKW3 cells pre-incubated with supernatant; competitor OKT4a read with anti-human A647 secondary; background 5000, max binding 35000
reported.metric: SKW3 FACS Binning OKT4a anti-hu A647 Secondary

- 75110_04F22A (antibody, V domains shown, Tested as non-clonal AlivaMab Mouse Kappa hybridoma supernatant: human variable domains and human kappa, mouse Fc) VH: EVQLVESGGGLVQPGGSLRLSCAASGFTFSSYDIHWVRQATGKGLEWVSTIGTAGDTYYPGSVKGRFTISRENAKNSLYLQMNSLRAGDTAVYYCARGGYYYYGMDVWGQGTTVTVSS VL: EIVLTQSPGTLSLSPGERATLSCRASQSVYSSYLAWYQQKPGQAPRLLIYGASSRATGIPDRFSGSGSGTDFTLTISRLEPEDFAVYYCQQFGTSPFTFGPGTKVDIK: 40200
- 75110_01D24A (antibody, V domains shown, Tested as non-clonal AlivaMab Mouse Kappa hybridoma supernatant: human variable domains and human kappa, mouse Fc) VH: QVQLQQWGAGLLKPSETLSLTCAVYGGSFSGYYWSWIRQPPGKGLEWIGEINHSGSTNYNPSLKSRVTISVDTSENQFSLKLNSVTAADTAVYYCARLVNWFDPWGQGTLVTVSS VL: EIQMTQSPSSVSASVGDRVTITCRASQDISNWLAWYQQKPGKAPNLLIFAASSLQTGVPSRFSGSGSGTDFTLTISSLQPDDFATYYCQQANSFPYSFGQGTNLGIK: 5320
- 75110_02I16A (antibody, IgG1, V domains shown, Tested as non-clonal AlivaMab Mouse Kappa hybridoma supernatant: human variable domains and human kappa, mouse Fc; also called 75110_02116A) VH: QVQLQQWGAGLLKPSETLSLTCDVYGGSFSGYYWTWIRQPPGKGLEWIGEINHSGTTNSNPSLKSRVTISVDTSKSQFSLRLSSVTAADTAVYFCTRELNWFDPWGQGTLVTVSS VL: DIQMTQSPSSVSASVGDRVTITCRASQDIANWLAWYQQKPGKAPQLLIYAASSLLGGVPSRFSGSGSGADFTLTISSLHPEDFATYYCQQANSFPYTFGQGTKLEIK: 30700
- 75110_05K11A (antibody, IgG1, V domains shown, Tested as non-clonal AlivaMab Mouse Kappa hybridoma supernatant: human variable domains and human kappa, mouse Fc) VH: EVQLVESGGGLVQPGGSLRLSCAASGFTFSSYDMHWVRQPTGKGLEWVSTIGTAGDTYYPASVKGRFTISRENAKNSLYLQMNSLRAGDTAVYYCARGGFYYYGMDVWGQGTTVTVSS VL: EIVLTQSPGTLSLSPGERVTLSCRASQSVSNTYLAWYQQKPGQAPRLLIYGASSRATGIPDRFSGSGSGTDFTLTISRLEPEDFVVYYCQQHGSSPFTFGPGTKVDIK: 37600
